Reference source: PubChem BioAssay

# Test system: Plasmodium falciparum Sir2 (PF13_0152, Sir2A)
# protocol notes: pfSir2 binders on small-molecule microarrays, primary screen, biochemical, small-molecule microarray, 635 nm fluorescence (AID 1098);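 further: score merges spot fluorescence intensity with its signal-to-noise ratio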
# condition notes: small-molecule microarray binding, fluorescence 635 nm; higher = more signal

[
  {
    "compound": "C=CCC(OC(C)=O)[C@@H]1[C@@H](N(Cc2cc3ccccc3o2)C(=O)c2ccc(C)cc2)c2cc(OCCCO)ccc2N1C(=O)Cc1ccc2ccccc2c1 (stereo partly drawn)",
    "composite z-score": -0.45
  },
  {
    "compound": "COC(=O)C[C@H]1O[C@]2(C(=O)N(C)c3ccccc32)[C@@H](C)[C@@H]1[Si](C)(C)c1ccc(C)cc1",
    "composite z-score": 0.486
  },
  {
    "compound": "O=C1O[C@@H](c2ccccc2)[C@@H](c2ccccc2)N2[C@@H](c3ccccc3OCCO)[C@]3(C(=O)Nc4ccccc43)[C@@H](C(=O)NC[C@H](O)c3ccccc3)[C@H]12",
    "composite z-score": 1.11
  },
  {
    "compound": "CCOC(=O)C[C@H]1[C@H](OC(=O)c2ccc(-c3ccccc3)cc2)[C@@H](NC(=O)C2CCCCC2)c2cc(OCCCO)ccc2N1C(=O)c1ccccc1",
    "composite z-score": 0.3
  },
  {
    "compound": "CCOC(=O)C[C@H]1[C@H](OC(=O)Cc2ccc3c(c2)OCO3)[C@@H](NC(=O)C2CCCCC2)c2cc(OCCCO)ccc2N1C(=O)c1ccc2ccccc2n1",
    "composite z-score": 0.774
  },
  {
    "compound": "COc1ccc(C(O)C2C=CC3C(=O)N(c4ccccc4)C(=O)C3N2Nc2ccccc2)cc1OCc1ccccc1 (stereo not drawn)",
    "composite z-score": 0.964
  },
  {
    "compound": "CC(C)CCC[C@@H](C)[C@H]1CC[C@@]2(C)C3=C(CC[C@]12C)[C@@]1(C)CC[C@H](OC(=O)c2ccc(Br)cc2)C(C)(C)C1CC3 (stereo partly drawn)",
    "composite z-score": 0.27
  },
  {
    "compound": "[N-]=[N+]=Nc1ccccc1C[C@]1(C(=O)NCc2ccccc2)N=C(c2ccc(OCCCO)cc2)O[C@H]1c1ccccc1",
    "composite z-score": 1.13
  },
  {
    "compound": "CN(C)CCCNC(=O)[C@@H]1c2ccccc2C(=O)N(CC23CC4CC(CC(C4)C2)C3)[C@H]1c1ccc(CO)cc1",
    "composite z-score": 1.15
  },
  {
    "compound": "COc1ccc(C#Cc2ccc3c(c2)[C@]2(C(=O)N3)[C@H](C(=O)N3CCc4cc(OC)c(OC)cc4C3)[C@H]3C(=O)O[C@H](c4ccccc4)[C@H](c4ccccc4)N3[C@@H]2c2ccc(O)cc2)cc1",
    "composite z-score": 0.822
  },
  {
    "compound": "Cc1ccc(C(C)CC(O)C2C=CC3C(=O)N(c4ccccc4)C(=O)C3N2Nc2ccc(C(C)C)cc2)o1 (stereo not drawn)",
    "composite z-score": 0.938
  },
  {
    "compound": "C[C@]1(C(=O)NC2CC2)c2ccccc2C(=O)N(Cc2ccc(OC(F)(F)F)cc2)[C@H]1c1ccc(CO)cc1",
    "composite z-score": -0.419
  },
  {
    "compound": "COc1ccc([Si](C)(C)[C@@H]2[C@@H](CCn3cc([C@H](O)c4ccccc4)nn3)O[C@]3(C(=O)N(Cc4ccc(N5CCOC5=O)cc4)c4ccccc43)[C@H]2C)cc1",
    "composite z-score": 0.972
  }
]
